Each entry below carries its reported Z score.
- System: Plasmodium falciparum
- measurement-notes: Primary screen in NF54 nanoGlo assay, in single point, at 2uM, 72h
- Format: functional, Erythrocyte
- cond: timepoint 72 hour
The campaign covered roughly 150,000 compounds. About 540 (0.36%) showed an effect of 50% or more. Many of the other results were omitted from the sample, so strong results are more common in it than they were.
In your answer, state the number alone without any accompanying words.

Solved cases (3 shown):
compound	system-name	Z score
CC(C)(C)c1ncc(-c2cc(F)cc3cccnc23)[nH]1	Plasmodium falciparum	1.82
Cc1cccc(N2CCN(C(=O)c3cn4c(n3)COCC4)CC2)c1C	Plasmodium falciparum	1.36
CC(=O)N[C@@H]1CN(Cc2nccn2Cc2ccccc2)C[C@H]1c1nccn1C	Plasmodium falciparum	-1.12

The compound identified as Cn1nccc1CNC(CO)CC(O)C(C)(C)C (stereo not given) registered its Z score at 0.38

# compound COc1ccc(-c2nc(C)c(C(=O)Nc3n[nH]c(CC(C)C)n3)s2)cc1OC ; its Z score = -2.32

Reported Z score of Cn1ccnc1[C@@H]1CCCN1Cc1nccn1Cc1ccccc1 : -4.75

For Cc1cccc2c(-c3cccc(C(N)=O)n3)c[nH]c12 the compound record lists Z score as 1.19

Entry CC(C)(C)OC(=O)NC1CCCC1Nc1cnn(-c2ccccn2)c1 (stereo not given) ; Z score = 1.28

Z score for COc1cccc(-c2nc(C)c(C(=O)Nc3cccc4[nH]ccc34)s2)c1 is 0.1

Z score reading for COc1cccc(-c2nc(C)c(C(=O)Nc3nc(C(C)C)n[nH]3)s2)c1 : -7.28

====

- Test system: Plasmodium falciparum
- measurement-notes: Primary screen in NF54 nanoGlo assay, in single point, at 2uM, 72h
- Type: functional, Erythrocyte
- cond: timepoint 72 hour
Screen size: about 150,000 compounds; about 540 (0.36%) showed an effect of 50% or more. Shown is part of a subset that was picked to be rich in strong results.
measured-endpoint: % Inhibition (%)
Give just the numeric value; % need not be written.

# example entries with known answers
compound	system-name	% Inhibition / %
Cc1ccc(CN2CCN(CC(=O)Nc3cc(C)on3)C(=O)C2=O)cc1	Plasmodium falciparum	0
CC(C)(C)OC(=O)NC1CCCC1Nc1cnn(-c2ccccn2)c1 (stereo unspecified)	Plasmodium falciparum	-13
COc1cc(Cl)c(C)cc1NC(=O)c1cnn[nH]1	Plasmodium falciparum	-17
O=C(CC(F)(F)F)N1CCC[C@H](Oc2ncccn2)C1	Plasmodium falciparum	14
Cc1nonc1CN1CC[C@@]2(CCCN(C3CCCCC3)C2=O)C1	Plasmodium falciparum	-1

Lab note: COC(C(=O)N1C[C@H](C(=O)O)[C@@H](c2ccc(Br)cc2)C1)C1CC1 (stereo partly specified) gave % Inhibition of -1

====

- Test system: Plasmodium falciparum
- measurement-notes: Primary screen in NF54 nanoGlo assay, in single point, at 2uM, 72h
- Format: functional, Erythrocyte
- cond: timepoint 72 hour
The whole screen tested about 150,000 compounds, of which about 540 (0.36%) showed an effect of 50% or more. Many of the other results were omitted from the sample, so strong results are more common in it than they were.
// % Inhibition lookup, one value per entry
// note: answer is a bare numeric in %

// below: answered molecules
molecule	% Inhibition, %
CC[C@H](C)N(CC(=O)N(CCOC)Cc1cccn1Cc1ccccc1)C(=O)c1ccco1	-8
O=C(Nc1cc(C(F)(F)F)ccc1N1CCOCC1)c1nn(-c2ccccc2)c(=O)c2ccccc12	-15
CCOc1cc(CNC2CCCC2)cc(Br)c1OCC(=O)Nc1ccccc1OC	-12

% Inhibition for COc1ccc(C[C@@H]2C3=C(CCCC3)CCN2C(=O)c2cc(C)on2)cc1 is -5

GET /value?item= O=C(Nc1ccccc1C(=O)N1CCCCC1)[C@H]1CCCN(S(=O)(=O)c2cccs2)C1 &field=% Inhibition returns 3

For reference, reported % Inhibition for Cn1cccc(C(=O)N2CCC(c3nnc(C(F)(F)F)o3)CC2)c1=O stands at -12

Data point: O=C(Nc1nncs1)c1occc1-c1ccccc1 ; % Inhibition = -6

The recorded % Inhibition for CCOc1cc(CNc2cc(C)ccc2C)cc(Br)c1OCC(=O)Nc1ccccc1 is -2

Just so you know, measured % Inhibition for Cc1ccc(-c2nnc(N3CCC4(CCOC4)C3)n2CC2CCCO2)s1 (centres undefined) came out at -3
